Tested Target: human TXNRD1 (Homo sapiens, UniProt Q16881)
Sequence (Q16881 1-499 isoform Q16881-5): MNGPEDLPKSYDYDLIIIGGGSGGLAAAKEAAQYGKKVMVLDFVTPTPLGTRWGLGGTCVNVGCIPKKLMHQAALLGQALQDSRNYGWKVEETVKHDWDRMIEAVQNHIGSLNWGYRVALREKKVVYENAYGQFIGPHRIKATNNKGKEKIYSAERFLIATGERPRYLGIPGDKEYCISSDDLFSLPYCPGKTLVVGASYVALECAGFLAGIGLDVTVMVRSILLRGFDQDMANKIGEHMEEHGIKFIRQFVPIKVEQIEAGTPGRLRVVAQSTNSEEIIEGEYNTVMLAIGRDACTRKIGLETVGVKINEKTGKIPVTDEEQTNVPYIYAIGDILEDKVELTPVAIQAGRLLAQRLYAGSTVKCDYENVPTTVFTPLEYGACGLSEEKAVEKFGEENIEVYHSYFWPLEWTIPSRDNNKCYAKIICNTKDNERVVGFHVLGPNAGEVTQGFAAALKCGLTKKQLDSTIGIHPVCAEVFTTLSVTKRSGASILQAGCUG
Endpoint Label: pIC50
Please note pIC50 is a logarithmic value: minus log10 of concentration in mol/L. Answer with that number alone.

# input Fill blank: measured pIC50 of the compound CC(=O)OC[C@H]1O[C@@H]([S-])[C@H](OC(C)=O)[C@@H](OC(C)=O)[C@@H]1OC(C)=O.CCP(CC)CC.[Au+] is ____.
# output 4.72

----------
Tested Target: human GPX2 (Homo sapiens, UniProt P18283)
Sequence (P18283 whole entry, canonical isoform): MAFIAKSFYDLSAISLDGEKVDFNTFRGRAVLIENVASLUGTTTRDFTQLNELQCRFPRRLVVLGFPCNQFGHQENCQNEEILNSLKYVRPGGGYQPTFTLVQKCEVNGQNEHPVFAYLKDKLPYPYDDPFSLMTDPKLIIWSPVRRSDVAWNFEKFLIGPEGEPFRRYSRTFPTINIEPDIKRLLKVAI
Procedure Summary: GPX2 activity assay (follow-up isoform specificity)
Condition Info: IC50 of resulting CRC, Table 2
Measured pIC50 values are reported for all entries that follow.
The read-out pIC50 is expressed as -log10 of concentration in moles per litre.

Worked examples, 4 molecules total:
[
  {
    "Molecule": "O=C(NNCS(=O)(=O)O)c1ccncc1 [Isoniazid sodium methanesulfonate]",
    "Tested Target": "human GPX2 (Homo sapiens, UniProt P18283)",
    "Observed Value": 5.77
  },
  {
    "Molecule": "CC(=O)OC[C@H]1O[C@@H]([S-])[C@H](OC(C)=O)[C@@H](OC(C)=O)[C@@H]1OC(C)=O.CCP(CC)CC.[Au+]",
    "Tested Target": "human GPX2 (Homo sapiens, UniProt P18283)",
    "Observed Value": 5.68
  },
  {
    "Molecule": "Cc1c(N(C)CS(=O)(=O)O)c(=O)n(-c2ccccc2)n1C",
    "Tested Target": "human GPX2 (Homo sapiens, UniProt P18283)",
    "Observed Value": 5.48
  },
  {
    "Molecule": "Nc1nc(/C(=C/CC(=O)O)C(=O)N[C@@H]2C(=O)N3C(C(=O)O)=CCS[C@H]23)cs1",
    "Tested Target": "human GPX2 (Homo sapiens, UniProt P18283)",
    "Observed Value": 5.00
  }
]

# input Param readout = pIC50; param system = human GPX2 (Homo sapiens, UniProt P18283); param query = O=C(N[C@H]1CCS[C@H]2CCC[C@@H](C(=O)O)N2C1=O)[C@@H](S)Cc1ccccc1 ; response: value
# output 5.33

# input Recall the recorded pIC50 for O=C(O)C(S)C(S)C(=O)O (centres unmarked) with human GPX2 (Homo sapiens, UniProt P18283) and state it.
# output 5.64

# input // lookup pIC50 | system=human GPX2 (Homo sapiens, UniProt P18283) | key= COc1ccc2[nH]c([S+]([O-])Cc3ncc(C)c(OC)c3C)nc2n1 (centres unmarked)
# output 5.11

----------
Tested Target: GPX1 (Homo sapiens)
Construct: made in house; host or cells: E. coli
Procedure Summary: nanoDSF thermal stabilization, GPX1
Type: binding
Condition Info: 100 μM small molecule vs DMSO control; first or only inflection point
Where a name gives a salt, the structure may show the parent alone.
Measured GSH Binding (ΔTm) GPx1; shift in nanoDSF melting temperature by item

The examples below pair each entry with its known result.
[
  {
    "Compound": "CO[C@@]1(NC(=O)Cc2cccs2)C(=O)N2C(C(=O)O)=C(COC(N)=O)CS[C@@H]21 [Cefoxitin sodium salt]",
    "Observed Value": "+0.4 °C"
  },
  {
    "Compound": "N[C@@H](CCC(=O)N[C@@H](CS)C(=O)NCC(=O)O)C(=O)O [Glutathione]",
    "Observed Value": "+3.6 °C"
  }
]

Lab note: next compound to report on.
# input Recorded GSH Binding (ΔTm) GPx1; shift in nanoDSF melting temperature of O=C(O)C(S)C(S)C(=O)O (stereo not drawn) [2,3-Dimercaptosuccinic acid] , please.
# output -0.9 °C

----------
Tested Target: GPX1 (Homo sapiens, UniProt P07203)
Construct: made in house; host or cells: E. coli
Procedure Summary: GR-coupled GPX1 activity assay (NADPH fluorescence, CHP substrate)
Type: biochemical
Condition Info: IC50 of resulting CRC, Table 2; read-out: IC50 GPx1
Reported IC50 values follow for various compounds
Supply the numeric figure in µM, leaving out any unit text.

Previously resolved entries follow.
[
  {
    "Compound": "CC(=O)OC[C@H]1O[C@@H]([S-])[C@H](OC(C)=O)[C@@H](OC(C)=O)[C@@H]1OC(C)=O.CCP(CC)CC.[Au+] [Auranofin]",
    "Tested Target": "GPX1 (Homo sapiens, UniProt P07203)",
    "IC50 [µM]": 4.6
  },
  {
    "Compound": "Nc1nc(/C(=C/CC(=O)O)C(=O)N[C@@H]2C(=O)N3C(C(=O)O)=CCS[C@H]23)cs1 [Ceftibuten]",
    "Tested Target": "GPX1 (Homo sapiens, UniProt P07203)",
    "IC50 [µM]": 18.5
  },
  {
    "Compound": "O=C(O)C(S)C(S)C(=O)O (stereo not shown) [2,3-Dimercaptosuccinic acid]",
    "Tested Target": "GPX1 (Homo sapiens, UniProt P07203)",
    "IC50 [µM]": 5.2
  }
]

# input compound: COc1ccc2[nH]c([S+]([O-])Cc3ncc(C)c(OC)c3C)nc2n1 (stereo not shown) [Tenatoprazole] ; wanted: its IC50
# output 8.9

----------
Tested Target: GPX1 (Homo sapiens)
Construct: made in house; host or cells: E. coli
Sequence (P07203 1-203): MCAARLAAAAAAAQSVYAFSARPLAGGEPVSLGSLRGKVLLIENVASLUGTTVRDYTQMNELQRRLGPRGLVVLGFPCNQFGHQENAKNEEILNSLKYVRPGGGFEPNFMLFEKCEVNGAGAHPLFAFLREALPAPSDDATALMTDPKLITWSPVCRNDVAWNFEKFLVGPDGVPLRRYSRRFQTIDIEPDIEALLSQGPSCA
Procedure Summary: nanoDSF thermal stabilization, GPX1
Assay type: binding
Condition Info: 100 μM small molecule vs DMSO control; first or only inflection point
Endpoint Label: GSH Binding (ΔTm) GPx1; shift in nanoDSF melting temperature

Below, each entry is followed by its recorded GSH Binding (ΔTm) GPx1; shift in nanoDSF melting temperature result.
[
  {
    "Compound": "O=C(N[C@H]1CCS[C@H]2CCC[C@@H](C(=O)O)N2C1=O)[C@@H](S)Cc1ccccc1",
    "Observed Value": "+6.3 °C"
  },
  {
    "Compound": "COc1ccc2[nH]c([S+]([O-])Cc3ncc(C)c(OC)c3C)nc2n1 (stereo not shown)",
    "Observed Value": "+7.5 °C"
  },
  {
    "Compound": "CC(=O)OC[C@H]1O[C@@H]([S-])[C@H](OC(C)=O)[C@@H](OC(C)=O)[C@@H]1OC(C)=O.CCP(CC)CC.[Au+]",
    "Observed Value": "+8.3 °C"
  }
]

# input Lookup: GSH Binding (ΔTm) GPx1; shift in nanoDSF melting temperature / GPX1 (Homo sapiens) / Nc1nc(/C(=C/CC(=O)O)C(=O)N[C@@H]2C(=O)N3C(C(=O)O)=CCS[C@H]23)cs1
# output -0.2 °C

----------
Tested Target: GPX4 (Homo sapiens)
Construct: made in house; host or cells: E. coli
Sequence (P36969 1-170 isoform P36969-2): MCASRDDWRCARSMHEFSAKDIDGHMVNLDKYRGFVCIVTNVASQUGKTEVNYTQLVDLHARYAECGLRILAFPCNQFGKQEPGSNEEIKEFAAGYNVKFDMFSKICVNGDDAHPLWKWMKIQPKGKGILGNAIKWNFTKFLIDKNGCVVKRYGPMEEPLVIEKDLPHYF
Procedure Summary: GR-coupled GPX4 activity assay (NADPH fluorescence, CHP substrate)
Format: biochemical
Condition Info: IC50 of resulting CRC, Table 2; read-out: IC50 GPx4
Endpoint Label: pIC50
To interpret pIC50, take it as minus log10 of a concentration measured in moles per litre.

Below are worked cases with known answers.
[
  {
    "Compound": "Cc1cnc(C(=O)N[C@H]2CCCCC/C=C\\[C@@H]3C[C@@]3(C(=O)NS(=O)(=O)C3CC3)NC(=O)[C@@H]3C[C@@H](Oc4nc5ccccc5c5ccccc45)CN3C2=O)cn1",
    "pIC50": 5.00
  },
  {
    "Compound": "Cc1c(C)n(Cc2ccc(-c3ccccc3C(=O)O)cc2)c2ccc(C(=O)N[C@@H](C)c3ccc([N+](=O)[O-])cc3)cc12",
    "pIC50": 5.17
  },
  {
    "Compound": "CC/C(=C(/c1ccc(/C=C/C(=O)O)cc1)c1ccc2[nH]ncc2c1)c1ccc(F)cc1Cl",
    "pIC50": 5.17
  },
  {
    "Compound": "Cc1c(CCOc2ccc(C(=O)O)cc2)c2cc(Cl)ccc2n1C(c1ccccc1)c1ccccc1",
    "pIC50": 4.83
  },
  {
    "Compound": "C=C[C@@H]1C[C@]1(NC(=O)[C@@H]1C[C@@H]2CN1C(=O)[C@H](C(C)(C)C)NC(=O)O[C@@H]1C[C@H]1CCCCCc1nc3ccc(OC)cc3nc1O2)C(=O)NS(=O)(=O)C1CC1",
    "pIC50": 5.47
  }
]

# input I am curious: what pIC50 value has been reported for CCOc1nc2cccc(C(=O)OC(C)OC(=O)OC3CCCCC3)c2n1Cc1ccc(-c2ccccc2-c2nnn[nH]2)cc1 (centres unmarked) ?
# output 5.00

# input Recorded pIC50 of CCCCCCO[C@@H](C)c1cccc(-c2csc(NC(=O)c3cc(Cl)c(/C=C(\C)C(=O)O)c(Cl)c3)n2)c1OC , please.
# output 5.27

# input Field request: pIC50 | item: COc1ccc2c(O[C@@H]3C[C@H]4C(=O)N[C@]5(C(=O)NS(=O)(=O)C6CC6)C[C@H]5/C=C\CCCCN(C)C(=O)[C@@H]4C3)cc(-c3nc(C(C)C)cs3)nc2c1C
# output 5.14
